# Tested on: Rattus norvegicus
# assayNotes: Total iron output induced by the compound (oral administration) and bile duct cannulated rat and the drug-promoted iron excretion was monitored in the bile at 21 hr; note: test concentration or dose not given here
# Format: functional
measuredQuantity: Total iron output (µg/kg)

[[record]]
molecule = "C[C@]1(C(=O)[O-])CSC(c2ncccc2O)=N1.[Na+] [DESFERRITHIOCIN SODIUM]"
system = "Rattus norvegicus"
recordedresult = 153.2

[[record]]
molecule = "O=C([O-])[C@@H]1CSC(c2ncccc2O)=N1.[Na+]"
system = "Rattus norvegicus"
recordedresult = 74.8

[[record]]
molecule = "C[C@]1(C(=O)NCCCCNCCCNC(=O)[C@@]2(C)CSC(c3ncccc3O)=N2)CSC(c2ncccc2O)=N1"
system = "Rattus norvegicus"
recordedresult = 82.2

[[record]]
molecule = "COC(=O)[C@@H]1CSC(c2ncccc2O)=N1"
system = "Rattus norvegicus"
recordedresult = 85.3

[[record]]
molecule = "O=C([O-])[C@@H]1CSC(c2ccccn2)=N1.[Na+]"
system = "Rattus norvegicus"
recordedresult = 56.8

[[record]]
molecule = "O=C([O-])[C@@H]1CSC(c2ccccc2O)=N1.[Na+]"
system = "Rattus norvegicus"
recordedresult = 238.1

[[record]]
molecule = "CC(=O)N(O)CCCCCNC(=O)CCC(=O)N(O)CCCCCNC(=O)CCC(=O)N(O)CCCCCN"
system = "Rattus norvegicus"
recordedresult = 128.7

[[record]]
molecule = "O=C(O)[C@@H]1CSC(c2ncccc2O)=N1"
system = "Rattus norvegicus"
recordedresult = 209.6

[[record]]
molecule = "C[C@]1(C(=O)O)CSC(c2ncccc2O)=N1"
system = "Rattus norvegicus"
recordedresult = 263.1

[[record]]
molecule = "COC(=O)[C@H]1N=C(c2ncccc2O)O[C@@H]1C"
system = "Rattus norvegicus"
recordedresult = 55.1

[[record]]
molecule = "O=C(O)[C@@H]1CSC(c2ccccn2)=N1"
system = "Rattus norvegicus"
recordedresult = 64.1


---

# reported Total iron output; entries follow
# Tested on: Rattus norvegicus
# assayNotes: Total iron output induced by the compound (oral administration) and bile duct cannulated rat and the drug-promoted iron excretion was monitored in the bile at 18 h
# Type: functional
measuredQuantity: Total iron output (µg/kg)

[[record]]
molecule = "O=C(O)[C@@H]1CSC(c2ncccc2O)=N1"
system = "Rattus norvegicus"
measuredquantity = "Total iron output"
unitannotation = "µg/kg"
recordedresult = 201.3

[[record]]
molecule = "O=C([O-])[C@@H]1CSC(c2ccccn2)=N1.[Na+]"
system = "Rattus norvegicus"
measuredquantity = "Total iron output"
unitannotation = "µg/kg"
recordedresult = 49.6

[[record]]
molecule = "O=C([O-])[C@@H]1CSC(c2ccccc2O)=N1.[Na+]"
system = "Rattus norvegicus"
measuredquantity = "Total iron output"
unitannotation = "µg/kg"
recordedresult = 226.8

[[record]]
molecule = "O=C([O-])[C@@H]1CSC(c2ncccc2O)=N1.[Na+]"
system = "Rattus norvegicus"
measuredquantity = "Total iron output"
unitannotation = "µg/kg"
recordedresult = 65.3

[[record]]
molecule = "C[C@]1(C(=O)O)CSC(c2ncccc2O)=N1"
system = "Rattus norvegicus"
measuredquantity = "Total iron output"
unitannotation = "µg/kg"
recordedresult = 253.7

[[record]]
molecule = "COC(=O)[C@@H]1CSC(c2ncccc2O)=N1"
system = "Rattus norvegicus"
measuredquantity = "Total iron output"
unitannotation = "µg/kg"
recordedresult = 81

[[record]]
molecule = "O=C(O)[C@@H]1CSC(c2ccccn2)=N1"
system = "Rattus norvegicus"
measuredquantity = "Total iron output"
unitannotation = "µg/kg"
recordedresult = 56.2

[[record]]
molecule = "CC(=O)N(O)CCCCCNC(=O)CCC(=O)N(O)CCCCCNC(=O)CCC(=O)N(O)CCCCCN"
system = "Rattus norvegicus"
measuredquantity = "Total iron output"
unitannotation = "µg/kg"
recordedresult = 119.8

[[record]]
molecule = "C[C@]1(C(=O)NCCCCNCCCNC(=O)[C@@]2(C)CSC(c3ncccc3O)=N2)CSC(c2ncccc2O)=N1"
system = "Rattus norvegicus"
measuredquantity = "Total iron output"
unitannotation = "µg/kg"
recordedresult = 74

[[record]]
molecule = "C[C@]1(C(=O)[O-])CSC(c2ncccc2O)=N1.[Na+] [DESFERRITHIOCIN SODIUM]"
system = "Rattus norvegicus"
measuredquantity = "Total iron output"
unitannotation = "µg/kg"
recordedresult = 146.8

[[record]]
molecule = "COC(=O)[C@H]1N=C(c2ncccc2O)O[C@@H]1C"
system = "Rattus norvegicus"
measuredquantity = "Total iron output"
unitannotation = "µg/kg"
recordedresult = 49.4

